# assay-procedure: Hemolytic activity
# Assay type: cell-based
# condition-context: human erythrocyte suspension, concentration 0.50 mM, human erythrocytes, 37 °C
assay-readout: hemolysis at 1 h, 0.5 mM (%)
Numbers only here, please. The scale is %.

Data request, read-out hemolysis at 1 h, 0.5 mM, for CC1c2cc(c(O)c(CN(C)C[C@@H](O)[C@H](O)[C@@H](O)[C@@H](O)CO)c2O)C(C)c2cc(c(O)c(CN(C)C[C@@H](O)[C@H](O)[C@@H](O)[C@@H](O)CO)c2O)C(C)c2cc(c(O)c(CN(C)C[C@@H](O)[C@H](O)[C@@H](O)[C@@H](O)CO)c2O)C(C)c2cc1c(O)c(CN(C)C[C@@H](O)[C@H](O)[C@@H](O)[C@@H](O)CO)c2O (stereo partly shown)
38.1

---

# assay-procedure: Hemolytic activity
# Format: cell-based
# condition-context: human erythrocyte suspension, concentration 0.125 mM, human erythrocytes, 37 °C
assay-readout: hemolysis at 1 h, 0.125 mM (%)
Numbers only here, please. The scale is %.

Data request, read-out hemolysis at 1 h, 0.125 mM, for CC1c2cc(c(O)c(CN(C)C[C@@H](O)[C@H](O)[C@@H](O)[C@@H](O)CO)c2O)C(C)c2cc(c(O)c(CN(C)C[C@@H](O)[C@H](O)[C@@H](O)[C@@H](O)CO)c2O)C(C)c2cc(c(O)c(CN(C)C[C@@H](O)[C@H](O)[C@@H](O)[C@@H](O)CO)c2O)C(C)c2cc1c(O)c(CN(C)C[C@@H](O)[C@H](O)[C@@H](O)[C@@H](O)CO)c2O (stereo partly shown)
21.3
